Hello, the source for this data is paper PMC12278462, in case you need it.

- Test system: NIH/3T3 mouse fibroblast cell line
- Assay name: MTT assay, tumour selectivity on non-cancerous fibroblasts
- Format: cell-based
- Condition summary: 72 h, read-out: calculated IC50 NIH/3T3
Assay endpoint: pIC50
One number for each entry, as −log10 of the molar value.

Request: // fetch pIC50 given entry N.N.[Cl][Pt][Cl] [Cisplatin, reference compound]
Result: 5.33

---

- Test system: HeLa
- Assay name: MTT antiproliferative assay, HeLa
- Assay type: cell-based, human
- Condition summary: Homo sapiens, HeLa, 30 µM, 72 h
Assign inhibition at 30 µM to each entry below.
Give bare numbers, in %.

Worked examples, 3 compounds total:
Compound: CCCCOC1(c2cc(=O)c3c(O)cc(O)cc3o2)C=CC(=O)C=C1 [compound 10, 1′-O-butyl protoapigenone, reference compound]
Study system: HeLa
Endpoint value: 96.2

Compound: CC(C)(C)c1ccc(-c2cc(O)cc3c2[C@H]2CC[C@@]4(C)C(=O)CC[C@H]4[C@@H]2CC3)cc1 [14c]
Study system: HeLa
Endpoint value: 98.3

Compound: C[C@@]12CC[C@@H]3c4c(cc(O)cc4-c4ccc(Br)cc4)CC[C@H]3[C@@H]1CCC2=O [14b]
Study system: HeLa
Endpoint value: 71.6

Consider the following items and state reported inhibition at 30 µM for each.
1. CCCCOC1(c2cc(=O)c3c(Oc4ccc(Br)cc4)cc(O)cc3o2)C=CC(=O)C=C1 [17b]
2. C[C@@]12CC[C@@H]3c4c(cc(OCc5cn(Cc6ccccc6)nn5)cc4-c4ccc(Br)cc4)CC[C@H]3[C@@H]1CCC2=O
3. CCCCOC1(c2cc(=O)c3c(Oc4ccccc4)cc(O)cc3o2)C=CC(=O)C=C1 [17a]
4. CCCCOC1(c2cc(=O)c3c(Oc4ccc(C(C)(C)C)cc4)cc(O)cc3o2)C=CC(=O)C=C1 [17c]

Result:
[97.7, 33.1, 94.3, 98]
